Source of measurements: ChEMBL document CHEMBL1127826

Target: Acyl-CoA:cholesterol acyltransferase (Oryctolagus cuniculus, UniProt Q95214)
Sequence (Q95214 whole entry): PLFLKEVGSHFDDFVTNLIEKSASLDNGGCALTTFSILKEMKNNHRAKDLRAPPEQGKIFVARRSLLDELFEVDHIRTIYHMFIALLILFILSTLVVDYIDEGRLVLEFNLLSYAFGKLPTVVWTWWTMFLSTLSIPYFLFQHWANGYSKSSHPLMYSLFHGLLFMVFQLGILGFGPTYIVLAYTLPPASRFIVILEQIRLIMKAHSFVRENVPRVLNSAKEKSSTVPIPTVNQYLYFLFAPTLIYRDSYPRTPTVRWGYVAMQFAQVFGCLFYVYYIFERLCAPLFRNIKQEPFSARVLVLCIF
# maps each entry to its IC50
Return type: number; implicit unit nM.

## Task Please give the measured IC50 for this compound: "CC(C)c1cccc(C(C)C)c1NC(=O)NCC1(c2ccccc2C(F)(F)F)CCCC1"
## Result 18

## Task Please give the measured IC50 for this compound: "Cc1ccccc1C1(CNC(=O)Nc2c(C(C)C)cccc2C(C)C)CCCC1"
## Result 17

## Task Please give the measured IC50 for this compound: "Cc1ccc(C)c(C2(CNC(=O)Nc3c(C(C)C)cccc3C(C)C)CCCC2)c1"
## Result 39

## Task Please give the measured IC50 for this compound: "CC(C)c1cccc(C(C)C)c1NC(=O)NCC1(c2cccc(N)c2)CCCC1"
## Result 21

## Task Please give the measured IC50 for this compound: "CC(C)c1cccc(C(C)C)c1NC(=O)NCC1(c2cccc(CBr)c2)CCCC1"
## Result 44

====

# maps each entry to its Delta TC
species: Rattus norvegicus; experiment: Percent change in total cholesterol in peanut oil (5.5%) - cholic acid (0.3%) - Cholesterol (1.5%) fed rats after a single dose; format: functional
Return type: number; implicit unit %.

{"chemicalString": "CC(C)c1ccc(C2(CNC(=O)Nc3c(C(C)C)cccc3C(C)C)CCCC2)cc1", "Delta TC (%)": -63}
{"chemicalString": "Cc1cc(C)c(C2(CNC(=O)Nc3c(C(C)C)cccc3C(C)C)CCCC2)c(C)c1", "Delta TC (%)": -24}
{"chemicalString": "CC(C)c1cccc(C(C)C)c1NC(=O)NCC1(c2ccccc2C(F)(F)F)CCCC1", "Delta TC (%)": -50}

## Task Please give the measured Delta TC for this molecule: "CC(C)c1cccc(C(C)C)c1NC(=O)NCC1(c2ccc(C(F)(F)F)cc2)CCCC1"
## Result -39

## Task Please give the measured Delta TC for this molecule: "CC(C)c1cccc(C(C)C)c1NC(=O)NCC1(c2cc(C(F)(F)F)cc(C(F)(F)F)c2)CCCC1"
## Result -32

## Task Please give the measured Delta TC for this molecule: "CC(C)c1cccc(C(C)C)c1NC(=O)NCC1(c2cccc(CBr)c2)CCCC1"
## Result -26

## Task Please give the measured Delta TC for this molecule: "Cc1cccc(C2(CNC(=O)Nc3c(C(C)C)cccc3C(C)C)CCCC2)c1"
## Result -52

## Task Please give the measured Delta TC for this molecule: "CC(C)c1cccc(C(C)C)c1NC(=O)NCC1(c2ccc(CC(C)(C)C)cc2)CCCC1"
## Result -53

## Task Please give the measured Delta TC for this molecule: "CC(C)c1cccc(C(C)C)c1NC(=O)NCC1(c2ccc(C(C)(C)C)cc2)CCCC1"
## Result -48

====

experiment: Compound was evaluated for the distribution coefficient at pH 7.4; assay type: physicochemical; details: octanol/water, read-out: logD
parameterMeasured: logD
Field format: numeric only.

## Task Please give the measured logD for this compound: "CC(C)c1cccc(C(C)C)c1NC(=O)NCC1(c2cccc(CN3CCN(C)CC3)c2)CCCC1"
## Result 5.28

## Task Please give the measured logD for this compound: "CC(C)c1cccc(C(C)C)c1NC(=O)NCC1(c2cccc(CN3CCOCC3)c2)CCCC1"
## Result 4.37

## Task Please give the measured logD for this compound: "CC(C)c1cccc(C(C)C)c1NC(=O)NCC1(c2cccc(CC#N)c2)CCCC1"
## Result 3.61

## Task Please give the measured logD for this compound: "CC(C)c1cccc(C(C)C)c1NC(=O)NCC1(c2cccc(CN)c2)CCCC1"
## Result 3.64

## Task Please give the measured logD for this compound: "CC(C)c1cccc(C(C)C)c1NC(=O)NCC1(c2cccc(CN(CCO)CCO)c2)CCCC1"
## Result 3.55

## Task Please give the measured logD for this compound: "CC(C)c1cccc(C(C)C)c1NC(=O)NCC1(c2cccc(CN(C)C)c2)CCCC1.Cl"
## Result 4.87

## Task Please give the measured logD for this compound: "CC(=O)OCCN(CCOC(C)=O)Cc1cccc(C2(CNC(=O)Nc3c(C(C)C)cccc3C(C)C)CCCC2)c1"
## Result 4.55

## Task Please give the measured logD for this compound: "CC(C)c1cccc(C(C)C)c1NC(=O)NCC1(c2ccc(N(C)C)cc2)CCCC1"
## Result 5.59

## Task Please give the measured logD for this compound: "CCCCN(CCCC)Cc1cccc(C2(CNC(=O)Nc3c(C(C)C)cccc3C(C)C)CCCC2)c1"
## Result 6.05

## Task Please give the measured logD for this compound: "CC(C)c1cccc(C(C)C)c1NC(=O)NCC1(c2cccc(CBr)c2)CCCC1"
## Result 5.23

====

assay: Solubility at, pH 7.4; format: physicochemical; conditions: buffer, read-out: S
parameterMeasured: solubility

## Task Please give the measured solubility for this molecule: CC(C)c1cccc(C(C)C)c1NC(=O)NCC1(c2ccc(N(C)C)cc2)CCCC1.Cl [NEVANIMIBE HYDROCHLORIDE]
## Result < 0.05 mg/mL

====

Target: UniProtKB Q95214
Sequence (Q95214 whole entry): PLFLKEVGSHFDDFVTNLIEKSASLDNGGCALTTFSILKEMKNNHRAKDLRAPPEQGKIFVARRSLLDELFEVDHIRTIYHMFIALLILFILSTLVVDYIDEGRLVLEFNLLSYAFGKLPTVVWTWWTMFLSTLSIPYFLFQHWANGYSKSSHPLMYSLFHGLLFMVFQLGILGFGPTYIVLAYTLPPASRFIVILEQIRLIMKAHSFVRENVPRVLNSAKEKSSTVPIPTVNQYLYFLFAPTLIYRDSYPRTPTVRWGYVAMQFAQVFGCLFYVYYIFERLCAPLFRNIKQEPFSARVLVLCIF
# maps each entry to its log10 of IC50
log10 IC50, nM

# example entries with known answers
{"chemicalString": "CC(C)c1cccc(C(C)C)c1NC(=O)NCC1(c2ccccc2N)CCCC1", "testValue": 2.15}
{"chemicalString": "Cc1cc(C)c(C2(CNC(=O)Nc3c(C(C)C)cccc3C(C)C)CCCC2)c(C)c1", "testValue": 1.75}
{"chemicalString": "CC(C)c1cccc(C(C)C)c1NC(=O)NCC1(c2ccccc2[N+](=O)[O-])CCCC1", "testValue": 1.43}

## Task Please give the measured log10 of IC50 for this molecule: "CC(C)c1cccc(C(C)C)c1NC(=O)NCC1(c2cccc(CN(C)C)c2)CCCC1.Cl"
## Result 1.83

## Task Please give the measured log10 of IC50 for this molecule: "Cc1ccc(C2(CNC(=O)Nc3c(C(C)C)cccc3C(C)C)CCCC2)cc1"
## Result 1.40

## Task Please give the measured log10 of IC50 for this molecule: "Cc1ccc(C2(CNC(=O)Nc3c(C(C)C)cccc3C(C)C)CCCC2)c(C)c1"
## Result 1.70

## Task Please give the measured log10 of IC50 for this molecule: "CC(C)c1cccc(C(C)C)c1NC(=O)NCC1(c2cccc(CC#N)c2)CCCC1"
## Result 1.38

## Task Please give the measured log10 of IC50 for this molecule: "COC(=O)c1ccc(C2(CNC(=O)Nc3c(C(C)C)cccc3C(C)C)CCCC2)cc1"
## Result 2.56

## Task Please give the measured log10 of IC50 for this molecule: "CC(C)c1cccc(C(C)C)c1NC(=O)NCC1(c2ccc(O)cc2)CCCC1"
## Result 1.62

====

tested on: Rattus norvegicus; test: Compound was evaluated in experiment 1 for High density lipoproteins at 1.0 (mg/kg) dose; assay type: functional
# maps each entry to its HDL-C

# example entries with known answers
{"compound": "CC(C)c1cccc(C(C)C)c1NC(=O)NCC1(c2cccc(CN3CCN(C)CC3)c2)CCCC1", "testValue": 15}
{"compound": "CC(C)c1cccc(C(C)C)c1NC(=O)NCC1(c2cccc(CN3CCOCC3)c2)CCCC1", "testValue": 13}
{"compound": "CC(C)c1cccc(C(C)C)c1NC(=O)NCC1(c2ccc(N(C)C)cc2)CCCC1.Cl [NEVANIMIBE HYDROCHLORIDE]", "testValue": 15}

## Task Please give the measured HDL-C for this compound: "CCCCN(CCCC)Cc1cccc(C2(CNC(=O)Nc3c(C(C)C)cccc3C(C)C)CCCC2)c1"
## Result 10

====

tested on: Rattus norvegicus; assay: Compound was evaluated in experiment 1 for Change in High density lipoproteins at 1.0 (mg/kg) dose; type: functional
# maps each entry to its Change HDL -C
Return type: number; implicit unit %.

# example entries with known answers
{"molecule": "CC(C)c1cccc(C(C)C)c1NC(=O)NCC1(c2ccc(N(C)C)cc2)CCCC1.Cl [NEVANIMIBE HYDROCHLORIDE]", "Change HDL -C (%)": 32}
{"molecule": "CC(C)c1cccc(C(C)C)c1NC(=O)NCC1(c2cccc(CN3CCN(C)CC3)c2)CCCC1", "Change HDL -C (%)": 27}
{"molecule": "CCCCN(CCCC)Cc1cccc(C2(CNC(=O)Nc3c(C(C)C)cccc3C(C)C)CCCC2)c1", "Change HDL -C (%)": -16}

## Task Lab note: need Change HDL -C with Rattus norvegicus for entry "CC(C)c1cccc(C(C)C)c1NC(=O)NCC1(c2cccc(CN3CCOCC3)c2)CCCC1" , please look it up.
## Result 10
